Source of measurements: PubChem BioAssay (NCI)

Test system: SW-620 colon
Assay: NCI-60 one-dose screen, 48 h
Conditions: 10 µM unless noted
The panel holds about 83,000 compounds, 20% with a hit somewhere; the sample as a whole holds those more often. Active and inactive are the calls of the source. Rule for the calls: active = growth percent below 10; inactive = the rest.
Hi! Could you answer with just one of these? class 1 = active, class 0 = inactive

Below, 5 compounds whose answers are already recorded.
INSERT INTO measurements (compound, assayedtarget, label) VALUES
  ('COc1cc(/C=C2\C(=O)N(CC(O)COc3cc(O)c4c(=O)cc(-c5ccccc5)oc4c3)c3ccccc32)cc(OC)c1O (stereo not drawn)', 'SW-620 colon', 'class 0'),
  ('CCCCCCCC(=O)SCC/C=C/[C@@H]1CC(=O)NCc2cccc(n2)CN(Cc2ccc(Cl)cc2)CC(=O)N[C@@H](C(C)C)C(=O)O1', 'SW-620 colon', 'class 0'),
  ('CC(C)(C)c1ccc(OP(=S)(N/N=C/c2ccccc2O)Oc2ccc(C(C)(C)C)cc2)cc1', 'SW-620 colon', 'class 0'),
  ('N#C/C(=C\c1ccc(-c2cccc(C(F)(F)F)c2)o1)c1nc(-c2ccco2)cs1', 'SW-620 colon', 'class 0'),
  ('COC(=O)[C@]12CC[C@@H](C(C)=O)[C@@H]1[C@H]1CC[C@@H]3[C@@]4(C)C/C(=C/c5cccnc5)C(=O)C(C)(C)[C@@H]4CC[C@@]3(C)[C@]1(C)CC2', 'SW-620 colon', 'class 0');

How did this test come out for CN1CCN(c2ccc3nc(-c4[nH]ncc4Nc4ncnc5[nH]ccc45)[nH]c3c2)CC1 ?
class 1

Let us now turn to COc1cc2c(cc1-c1c(C)noc1C)ncc1nc(C3CCC(F)(F)CC3)n([C@@H](C)COC(F)F)c12
class 0

Let us now turn to CCCCCCCCNc1cccc2c1C(=O)c1ccccc1C2=O
class 0

Let us now turn to CC(=O)c1c(C)[nH]c(-c2nc3ccc(N4CCN(C)CC4)cc3[nH]2)c1-c1ccc2c(c1)OCCO2
class 0

Let us now turn to C#CCN=C[C@]12CC[C@@H](C(=C)C)[C@@H]1[C@H]1CC[C@@H]3[C@@]4(C)CCC(=O)C(C)(C)[C@@H]4CC[C@@]3(C)[C@]1(C)CC2
class 0

Let us now turn to Cn1c(=O)c2c(nc(Br)n2CC(=O)Nc2ccc(F)cc2)n(C)c1=O
class 0

Let us now turn to Cc1oc(-c2ccccc2Cl)cc1C(=O)Nc1ccc(S(N)(=O)=O)cc1
class 0

Let us now turn to O=C1/C(=C\c2ccco2)SC(=S)N1CCc1ccc(O)cc1
class 0
